Biological target: T1, human CD40L, membrane-bound on cells (human, UniProt P29965 1-261)
T1 sequence: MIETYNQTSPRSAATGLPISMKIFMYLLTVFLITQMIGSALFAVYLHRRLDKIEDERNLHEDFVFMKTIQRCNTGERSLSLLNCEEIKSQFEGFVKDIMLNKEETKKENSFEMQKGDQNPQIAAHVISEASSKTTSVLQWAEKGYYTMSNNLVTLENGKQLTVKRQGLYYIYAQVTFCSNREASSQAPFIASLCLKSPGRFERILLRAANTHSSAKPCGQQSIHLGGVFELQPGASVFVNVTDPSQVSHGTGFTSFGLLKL
Assay: cell-based or functional assay
experimentalEndpoint: CHO-hCD40L-driven Human B Cell Proliferation EC50 (nM)

binder: 2h572-634-CT Long Fc (Fc fusion, not shown: linker and CT Long Fc (CT-L2)) EVQLLESGGGLVQPGGSLRLSCAASGFTFNWELMGWARQAPGKGLEWVSGIEGPGDVTYYADSVKGRFTISRDNSKNTLYLQMNSLRAEDTAVYYCVKVGKDSRSDYRGQGTLVTVSS
readoutNumber: 1

a = 2h572-633-CT Long Fc (Fc fusion, not shown: linker and CT Long Fc (CT-L2)) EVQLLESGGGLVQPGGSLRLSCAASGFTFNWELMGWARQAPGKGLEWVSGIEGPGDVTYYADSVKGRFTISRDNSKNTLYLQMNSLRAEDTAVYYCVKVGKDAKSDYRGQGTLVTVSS
b = 2h572-619-Ctlong Fc (Fc fusion, not shown: linker and CT Long Fc (CT-L2)) EVQLLESGGGLVQPGGSLRLSCAASGFTFNWQLMGWVRQAPGKGLEWVSGIEGPGDVTYYADSVKGRFTISRDNSKNTLYLQMNSLRAEDTAVYYCVKVGKDSRSDYRGQGTLVTVSS
c = 2h572-6-CT Long Fc (Fc fusion, not shown: linker and CT Long Fc (CT-L2)) EVQLLESGGGLVQPGGSLRLSCAASGFTFNWQLMGWVRQAPGKGLEWVSGIEGPGDVTYYADSVKGRFTISRDNSKNTLYLQMNSLRAEDTAVYYCVKVGKESNSDYRGQGTLVTVSS
Hey, quick one: sort these by CHO-hCD40L-driven Human B Cell Proliferation EC50, largest value first please. Use the labels to give the ranking in the order requested. c, b, a
(c: 6 nM, b: 2 nM, a: 1 nM)
